Recorded E4 + cpd n = 3, % bound, one value per entry.
Molecular target: apoE4 (Homo sapiens, UniProt P02649, C130R)
Construct: made in house
Sequence (P02649 19-317 C130R): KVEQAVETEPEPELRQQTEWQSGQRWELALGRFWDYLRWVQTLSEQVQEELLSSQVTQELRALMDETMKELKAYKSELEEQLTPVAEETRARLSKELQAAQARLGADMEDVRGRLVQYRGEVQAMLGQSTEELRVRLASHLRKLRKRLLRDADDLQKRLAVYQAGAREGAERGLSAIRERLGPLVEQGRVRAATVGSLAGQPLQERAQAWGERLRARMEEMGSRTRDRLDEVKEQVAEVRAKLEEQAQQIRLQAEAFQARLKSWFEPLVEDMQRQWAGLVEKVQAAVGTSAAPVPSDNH
Test: Emulsion binding assay for domain interaction, apoE4
Settings: follow-up assay

{"MOLECULE": "O=S(=O)([O-])c1ccc2c(c1)c(Nc1ccc(S(=O)(=O)O)cc1)cc1c2nc2ccccc2[n+]1-c1ccccc1", "E4 + cpd n = 3, % bound / %": 57}
{"MOLECULE": "CCCCN1C(=O)/C(=C/C=C2/Oc3ccccc3N2CCCCS(=O)(=O)[O-])N(CC)C1=S.[K+]", "E4 + cpd n = 3, % bound / %": 57}
{"MOLECULE": "O.O=C([O-])c1ccccc1-c1c2cc(I)c(=O)c(I)c-2oc2c(I)c([O-])c(I)cc12.[Na+].[Na+]", "E4 + cpd n = 3, % bound / %": 57}
{"MOLECULE": "O=C(N[C@H](Cc1ccc(OCc2ccccc2)cc1)C(=O)O)OCc1ccccc1", "E4 + cpd n = 3, % bound / %": 57}

====

Target: apoE4 (Homo sapiens, UniProt P02649, C130R)
Construct: made in house
Assay: Emulsion binding assay for domain interaction, apoE4
Conditions: follow-up assay, second E4 control

{"MOLECULE": "O=S(=O)([O-])c1ccc2c(c1)c(Nc1ccc(S(=O)(=O)O)cc1)cc1c2nc2ccccc2[n+]1-c1ccccc1", "E4 control, % free / %": 54}
{"MOLECULE": "CCCCN1C(=O)/C(=C/C=C2/Oc3ccccc3N2CCCCS(=O)(=O)[O-])N(CC)C1=S.[K+]", "E4 control, % free / %": 55}
{"MOLECULE": "O=C(N[C@H](Cc1ccc(OCc2ccccc2)cc1)C(=O)O)OCc1ccccc1", "E4 control, % free / %": 57}
{"MOLECULE": "O.O=C([O-])c1ccccc1-c1c2cc(I)c(=O)c(I)c-2oc2c(I)c([O-])c(I)cc12.[Na+].[Na+]", "E4 control, % free / %": 74}

====

Target: apoE3 (Homo sapiens)
Construct: made in house
Sequence (P02649 19-317): as the sequence (P02649 19-317 C130R) above, with R112C counted along it
Assay: Emulsion binding assay, apoE3
Settings: follow-up assay
Recorded E3 + compound, % bound, one value per entry.

{"MOLECULE": "O=S(=O)([O-])c1ccc2c(c1)c(Nc1ccc(S(=O)(=O)O)cc1)cc1c2nc2ccccc2[n+]1-c1ccccc1", "UNITS_SYMBOL": "%", "E3 + compound, % bound": 30}
{"MOLECULE": "O.O=C([O-])c1ccccc1-c1c2cc(I)c(=O)c(I)c-2oc2c(I)c([O-])c(I)cc12.[Na+].[Na+]", "UNITS_SYMBOL": "%", "E3 + compound, % bound": 20}
{"MOLECULE": "O=C(N[C@H](Cc1ccc(OCc2ccccc2)cc1)C(=O)O)OCc1ccccc1", "UNITS_SYMBOL": "%", "E3 + compound, % bound": 26}
{"MOLECULE": "CCCCN1C(=O)/C(=C/C=C2/Oc3ccccc3N2CCCCS(=O)(=O)[O-])N(CC)C1=S.[K+]", "UNITS_SYMBOL": "%", "E3 + compound, % bound": 30}

====

Target: apoE4 (Homo sapiens, UniProt P02649, C130R)
Construct: made in house
Test: Emulsion binding assay for domain interaction, apoE4
Conditions: follow-up assay, second E4 control
QUANTITY: E4 control, % bound (%)

{"MOLECULE": "O.O=C([O-])c1ccccc1-c1c2cc(I)c(=O)c(I)c-2oc2c(I)c([O-])c(I)cc12.[Na+].[Na+]", "TEST_TARGET": "apoE4 (Homo sapiens, UniProt P02649, C130R)", "UNITS_SYMBOL": "%", "RECORDED_VALUE": 26}
{"MOLECULE": "O=S(=O)([O-])c1ccc2c(c1)c(Nc1ccc(S(=O)(=O)O)cc1)cc1c2nc2ccccc2[n+]1-c1ccccc1", "TEST_TARGET": "apoE4 (Homo sapiens, UniProt P02649, C130R)", "UNITS_SYMBOL": "%", "RECORDED_VALUE": 46}
{"MOLECULE": "CCCCN1C(=O)/C(=C/C=C2/Oc3ccccc3N2CCCCS(=O)(=O)[O-])N(CC)C1=S.[K+]", "TEST_TARGET": "apoE4 (Homo sapiens, UniProt P02649, C130R)", "UNITS_SYMBOL": "%", "RECORDED_VALUE": 45}
{"MOLECULE": "O=C(N[C@H](Cc1ccc(OCc2ccccc2)cc1)C(=O)O)OCc1ccccc1", "TEST_TARGET": "apoE4 (Homo sapiens, UniProt P02649, C130R)", "UNITS_SYMBOL": "%", "RECORDED_VALUE": 43}
